system: K-562 leukemia; assay: NCI tumour cell line growth inhibition, 48 h; in the data active = GI50 below about 0.43 µM; inactive = the rest
Labels: class 1 (active), class 0 (inactive)

compound: O=C(CCCCCCCn1cc(-c2cccnc2)nn1)Nc1ccccc1-c1ccccc1
tgt: K-562 leukemia
class: class 1

compound: CNC(=O)c1c(NC(=O)c2ccc(C(F)(F)F)cc2)sc2c1CCC(=O)C2
tgt: K-562 leukemia
class: class 1

compound: Cc1ccc(S(=O)(=O)Oc2ccc([N+](=O)[O-])cc2[N+](=O)[O-])cc1
tgt: K-562 leukemia
class: class 0

compound: NC(=O)C1c2ccccc2C=Cc2ccccc21
tgt: K-562 leukemia
class: class 0

compound: O=C1/C=C/[C@@H](O)[C@@H]2C[C@@H](O)C[C@H]2/C=C/CCC[C@H](CCc2ccc(C(F)(F)F)cc2)O1
tgt: K-562 leukemia
class: class 0

compound: CCc1c2c(nc3cc4c(c(N)c13)OCO4)-c1cc3c(c(=O)n1C2)COC(=O)[C@]3(O)CC
tgt: K-562 leukemia
class: class 1

compound: COc1c2c3ccccc3nc-2n(C)c2ccccc12
tgt: K-562 leukemia
class: class 0

compound: COC(=O)[C@H]1[C@@H](O)[C@@]2(O)c3c(OC)cc(O[C@@H]4O[C@@H]([C@H](O)CO)CO[C@H]4OC)cc3O[C@@]2(c2ccc(OC)cc2)[C@@H]1c1ccccc1
tgt: K-562 leukemia
class: class 1

compound: CCOC(=O)C(Cc1c[nH]c2ccc([N+](=O)[O-])cc12)(NC(C)=O)C(=O)OCC
tgt: K-562 leukemia
class: class 0

compound: Cc1ccc2c(c1)C(C)Cc1c(ncnc1-n1cnc3cc(C)ccc31)N2C (configuration not stated)
tgt: K-562 leukemia
class: class 1

compound: O=C(NCCc1ccccc1)C(c1ccccc1)(c1ccccc1)c1ccccc1
tgt: K-562 leukemia
class: class 0

compound: COc1cccc(Cn2c(-c3nonc3N)nc3ccccc32)c1
tgt: K-562 leukemia
class: class 1

---

tested on: M14 melanoma; test: NCI tumour cell line growth inhibition, 48 h; in the data active = GI50 below about 0.43 µM; inactive = the rest
Outcomes: active, inactive

compound: O=C1/C=C/[C@@H](O)[C@@H]2C[C@@H](O)C[C@H]2/C=C/CCC[C@H](CCc2ccc(C(F)(F)F)cc2)O1
tgt: M14 melanoma
class: active

compound: Cc1nc2ccccn2c1NC(=O)NNC(=S)Nc1ccc(Br)cc1
tgt: M14 melanoma
class: inactive

compound: CN[C@@H](C)C(=O)N[C@H]1CN(C(=O)CC(C)C)CC[C@H]2CC[C@@H](C(=O)NC(c3ccccc3)c3ccccc3)N2C1=O
tgt: M14 melanoma
class: inactive

compound: CCOC(=O)C(Cc1c[nH]c2ccc([N+](=O)[O-])cc12)(NC(C)=O)C(=O)OCC
tgt: M14 melanoma
class: inactive

compound: CCN(CC)CCCC(C)Nc1cc(-c2ccc(C(F)(F)F)cc2)c(C#N)c2nc3ccccc3n12 (stereo not given)
tgt: M14 melanoma
class: inactive

---

tested on: BT-549 breast; test: NCI tumour cell line growth inhibition, 48 h
Listing of entries alongside the reported TGI.
endpoint.label: TGI (µM)

compound: COc1cc(C2SCC(=O)N2Cc2ccccc2)cc(OC)c1OC (stereo not given)
endpoint.label: TGI
op: >
reported.result: 100

compound: Cc1ccccc1N=CN(C)C
endpoint.label: TGI
op: >
reported.result: 100

compound: N=C(N)/N=C(\N)c1c(-c2cc(O)ccc2O)nc2sccn12
endpoint.label: TGI
op: =
reported.result: 84.3

compound: COc1cccc(Cn2c(-c3nonc3N)nc3ccccc32)c1
endpoint.label: TGI
op: =
reported.result: 68.5

compound: CC(C)CC1C(=O)N2CCC[C@H]2C2(O)O[C@](NC(=O)C3C=C4c5cccc6[nH]c(Br)c(c56)C[C@H]4N(C)C3)(C(C)C)C(=O)N12 (stereo not given in full)
endpoint.label: TGI
op: >
reported.result: 100

---

tested on: ACHN renal; assay: NCI tumour cell line growth inhibition, 48 h; in the data active means GI50 below about 0.43 µM; inactive means the rest
Labels: label 1 for active, label 0 for inactive

cpd.smiles: CCN(CC)CC.CCOc1ccc(NC(=O)N=C=[N-])cc1.[CH-]1CCCCC1.[CH-]1CCCCC1.[CH-]1CCCCC1.[Cl-].[Sn+4]
class: label 1

cpd.smiles: COC(=O)[C@H]1C(=O)[C@@]2(C)[C@H]([C@H](OC(=O)c3ccccc3)[C@]3(O)C[C@H](OC(=O)[C@H](O)[C@@H](NC(=O)c4ccc(F)cc4)c4ccccc4)C(C)=C1C3(C)C)[C@]1(OC(C)=O)CO[C@@H]1C[C@@H]2O
class: label 0

cpd.smiles: C[C@H](N)C(=O)N[C@@H]1[C@H]2C(=C(O)C[C@@H](O)[C@@H]2O)C(=O)O[C@]1(C)C(Cl)Cl
class: label 1

---

tested on: SF-268 CNS; experiment: NCI tumour cell line growth inhibition, 48 h
endpoint.label: GI50

molecule: COc1ccccc1-c1cc(/C=C2\C(=O)Nc3ncc(Br)cc32)cc(Br)c1O
tgt: SF-268 CNS
reported.result: 11.1 µM

molecule: COC(=O)[C@@]1(Cc2ccccc2)[C@H]2c3cc(C(=O)N4CCCC4)n(Cc4ccc(OC)c(OC)c4)c3C[C@H]2CN1C(=O)c1ccccc1
tgt: SF-268 CNS
reported.result: 13.3 µM

molecule: COc1ccc(CCN2CCCN3C2=Nc2ccccc2S3(=O)=O)cc1
tgt: SF-268 CNS
reported.result: 2.06 µM

molecule: CN[C@@H](C)C(=O)N[C@H]1CN(C(=O)CC(C)C)CC[C@H]2CC[C@@H](C(=O)NC(c3ccccc3)c3ccccc3)N2C1=O
tgt: SF-268 CNS
reported.result: > 100 µM

molecule: O=C(N/N=C/c1ccccc1O)C(O)(c1ccccc1)c1ccccc1
tgt: SF-268 CNS
reported.result: 8.69 µM

molecule: CN(C)CCCNC(=O)c1ccc2oc3cc4ccccc4c(=O)n3c2c1
tgt: SF-268 CNS
reported.result: 15.4 µM

molecule: CNC(=O)c1c(NC(=O)c2ccc(C(F)(F)F)cc2)sc2c1CCC(=O)C2
tgt: SF-268 CNS
reported.result: 0.995 µM

molecule: CCN(CC)CCCC(C)Nc1cc(-c2ccc(C(F)(F)F)cc2)c(C#N)c2nc3ccccc3n12 (centres undefined)
tgt: SF-268 CNS
reported.result: 1.9 µM

molecule: CCOC(=O)C(Cc1c[nH]c2ccc([N+](=O)[O-])cc12)(NC(C)=O)C(=O)OCC
tgt: SF-268 CNS
reported.result: 188 µM

---

Collected TGI values appear next to each entry.
system: OVCAR-8 ovarian; assay: NCI tumour cell line growth inhibition, 48 h
Where a SMILES comes first, the peptide text is derived from it. [ ]: non-standard residue; d: D form. The star is where a group is joined. Phe(4-NO2) = N[CH](Cc1ccc([N+](=O)[O-])cc1)C(=O)O; Cbz = O=C(OCc1ccccc1)*

molecule: NC(=O)c1ccc(NS(=O)(=O)c2ccc(N)cc2)nc1
TGI: > 100 µM
--
molecule: CN(C)c1ncnc2c1Cc1ccccc1C(=O)N2C
TGI: > 100 µM
--
molecule: O=C(NO)c1ccc(OCc2cccc(Cl)c2)cc1
TGI: 33.3 µM
--
molecule: CC(C)C1C(=O)NC(CO)Cc2c[nH]c3c(C(c4c[nH]c5ccccc45)C(O)CO)ccc(c23)N1C (stereo not given)
TGI: > 100 µM
--
molecule: N#CC(/C(=N\NC(=O)c1ccncc1)C(=O)Nc1ccc([N+](=O)[O-])cc1[N+](=O)[O-])c1nc(-c2ccc(Br)cc2)cs1 (stereo not given)
TGI: > 100 µM
--
molecule: CN(C)C(=S)N1C(=S)N(c2ccccc2)C(=Nc2ccccc2)C1=Nc1ccccc1
TGI: > 100 µM
--
molecule: CCCc1cc(=O)oc2c(C=O)c(O)cc(O)c12
TGI: 62 µM
--
molecule: Cc1ccc2nc(N/N=C/c3ccc(C)s3)cc(C)c2c1
TGI: 31.3 µM
--
molecule: CCOC(=O)CCC(NC(=O)OCc1ccccc1)C(=O)NC(CCC(=O)OCC)C(=O)NC(Cc1ccc([N+](=O)[O-])cc1)C(=O)NC(CCC(=O)OCC)C(=O)NC(CCC(=O)OCC)C(=O)OCC (stereo not given) (Cbz-E(OEt)E(OEt)[Phe(4-NO2)]E(OEt)E(OEt)-OEt; configuration not given here)
TGI: > 100 µM
--
molecule: Cc1ccc(/C=N/Nc2nc3ccccc3s2)s1
TGI: > 100 µM
--
molecule: CC1(C)C(C#N)=[N+]([O-])C(C)(C)N1O
TGI: > 100 µM
--
molecule: COc1ccc(/C=N/n2c(=O)[nH]c3ccccc3c2=O)cc1
TGI: > 100 µM
--
molecule: O=C1C=CC(=O)c2c1cc([N+](=O)[O-])c1ccoc21
TGI: > 72.3 µM
--
molecule: O=c1c(-c2c(-c3ccccc3)oc3ccc(Cl)cc3c2=O)c(-c2ccccc2)oc2ccc(Cl)cc12
TGI: > 100 µM
--
molecule: O=C(CSc1nc2ccccc2nc1-c1ccccc1)Nc1ccc(Cl)cc1
TGI: > 100 µM
--
molecule: CC(C)/C(Cl)=N/OC(=O)Nc1cccc(C(F)(F)F)c1
TGI: 31.8 µM
--
molecule: Cc1nn2c(=O)c([N+](=O)[O-])c(/C=C/c3ccco3)nc2s1
TGI: > 100 µM
--
molecule: C=CC(=O)N1C/C(=C\c2ccccc2)C(=O)/C(=C/c2ccccc2)C1
TGI: 4.94 µM
--
molecule: COc1ccccc1/C=C/C(=O)c1c(O)cc2occc2c1OC
TGI: > 100 µM
--
molecule: O=c1c(-c2ccccc2)c2oc(c1-c1ccccc1)CS(=O)(=O)CCC2
TGI: > 100 µM
--
molecule: O=Nc1ccc(O)c2ccccc12
TGI: 5 µM
--
molecule: COC(=O)[C@H]1[C@@H](O)[C@@]2(O)c3c(OC)cc(O[C@@H]4O[C@@H]([C@H](O)CO)CO[C@H]4OC)cc3O[C@@]2(c2ccc(OC)cc2)[C@@H]1c1ccccc1
TGI: 0.136 µM
--
molecule: Nc1ccccc1SC(CC(=O)c1ccccc1)c1ccc([N+](=O)[O-])cc1 (stereo not given)
TGI: 27.4 µM
--
molecule: CC(N)C(=O)OCN1C(=O)C2C3C=CC(C2C1=O)C1C2C(=O)N(COC(=O)C(C)N)C(=O)C2C31 (stereo not given)
TGI: 47.8 µM
--
molecule: CCc1n[nH]c(=O)n1N1C(=O)CCC1=O
TGI: > 100 µM
--
molecule: CO/[N+]([O-])=C\C(=O)N/C=C/C(=O)O
TGI: > 100 µM
--
molecule: COC(=O)C(Cc1ccccc1)NC(=O)C(CCC(=O)OCc1ccccc1)NC(=O)OC(C)(C)C (stereo not given)
TGI: > 100 µM
--
molecule: COc1ccc(CCN2CCCN3C2=Nc2ccccc2S3(=O)=O)cc1
TGI: > 100 µM
--
molecule: C=CCOc1ccc(/C(N=Nc2ccc(C)cc2)=N/NC(=O)c2ccccc2)cc1OC
TGI: 91.4 µM
--
molecule: O=C(CSc1nnc(Cc2ccccc2)o1)Nc1cccc(Cl)c1
TGI: > 100 µM
--
molecule: O=C(Nc1ccc(Cl)cc1)NS(=O)(=O)c1coc2ccccc2c1=O
TGI: > 10 µM
--
molecule: CSc1nc(NC2OCC(OC(C)=O)C(OC(C)=O)C2OC(C)=O)c(N=C(C)C(C)=O)c(=O)n1C (stereo not given)
TGI: > 100 µM
--
molecule: C[C@H]1CC[C@H]([C@@H](C)[C@H]2[C@@H](O)C[C@H]3[C@@H]4CC[C@H]5C[C@@H](O)CC[C@]5(C)[C@H]4CC[C@]23C)NC1
TGI: 32.2 µM
--
molecule: COc1ccccc1-c1cc(/C=C2\C(=O)Nc3ncc(Br)cc32)cc(Br)c1O
TGI: > 25 µM
--
molecule: Cc1n[n+](CC(=O)c2ccccc2)c2sc(N)nn12
TGI: > 100 µM
--
molecule: COc1cc(C2SCC(=O)N2Cc2ccccc2)cc(OC)c1OC (stereo not given)
TGI: > 100 µM
--
molecule: CCC(=O)C1(c2ccccc2)CCN(C)CC1
TGI: > 100 µM
--
molecule: [O-]c1c[n+](CCCC[n+]2cc([O-])on2)no1
TGI: > 100 µM
--
molecule: C#Cc1c(C)c(/C=C/C(C)=C/C=C/C(C)=C/C(=O)OC)n(C)c1C
TGI: > 100 µM
--
molecule: NC(=O)/C(=C\c1ccncc1)c1cccc2ccccc12
TGI: > 100 µM
